- measurement target: Thrombin and coagulation factor X (Homo sapiens) (UniProt P00734+P00742)
- Sequence (P00742 whole entry, looked up, other chains not shown): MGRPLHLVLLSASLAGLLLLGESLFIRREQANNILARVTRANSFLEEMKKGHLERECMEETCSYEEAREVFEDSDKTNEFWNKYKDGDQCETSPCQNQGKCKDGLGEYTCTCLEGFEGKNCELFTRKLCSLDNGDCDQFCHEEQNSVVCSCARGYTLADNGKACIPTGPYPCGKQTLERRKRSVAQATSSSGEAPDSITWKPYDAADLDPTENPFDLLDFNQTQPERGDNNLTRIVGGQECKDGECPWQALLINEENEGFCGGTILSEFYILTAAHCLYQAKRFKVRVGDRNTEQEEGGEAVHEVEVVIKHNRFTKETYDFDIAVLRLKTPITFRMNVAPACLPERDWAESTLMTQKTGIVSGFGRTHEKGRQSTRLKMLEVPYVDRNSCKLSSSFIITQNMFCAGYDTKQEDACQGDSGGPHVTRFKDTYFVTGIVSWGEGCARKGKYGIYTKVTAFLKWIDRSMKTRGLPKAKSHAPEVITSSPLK
- experimental protocol: Selectivity ratio for binding to factor Xa (Ki) and thrombin (Ki)
- Format: protein assay
Decide using Ratio alone. Strictly below 300: label 1. Equal to or above 300: label 0.

Qu. Could you please tell me whether Ratio recorded for Cc1cc(C)cc(CCN(CC(=O)NC(CCCN=C(N)N)B(O)O)C(=O)CCc2ccccc2)c1 (stereo unspecified) is less than 300?
Ans. label 1

Qu. Is it true that Ratio reported for Cc1cc(C)cc(C(C)(C)CN(CC(=O)NC(CCCN=C(N)N)B(O)O)C(=O)CCc2ccccc2)c1 (stereo unspecified) is less than 300?
Ans. label 1

Qu. Does the reported Ratio of the following compound sit strictly below 300? CC(C)(CN(CC(=O)NC(CCCCN)B(O)O)C(=O)CCc1ccccc1)c1ccccc1 (stereo unspecified)
Ans. label 0

Qu. Does this compound meet the criterion Ratio < 300? N/C=N/CCCC(NC(=O)CN(CCc1ccccc1)C(=O)CCc1ccccc1)B(O)O (stereo unspecified)
Ans. label 1

Qu. Here's an entry: NCCCCC(NC(=O)CN(CC1(c2ccccc2)CC1)C(=O)CCc1ccccc1)B(O)O (stereo unspecified) . Is its Ratio below 300?
Ans. label 0
